Assay: soluble on expression in E. coli; label from the status in PepcDB or PDB records
readoutType: soluble on expression in E. coli

querySequence: MGHHHHHHSHMFDAAFDPVLTVNSGDSVTVECVSGGVEVMPPAESPYAIPSALQAIHDSNPPRIGPHILTGPIAIAGAEPGDILEVRIEAIEPNNDWGYCAVRPLAGTLPEDFPERYVSHIAVDAQRGVCKPEWGPELPLAPFFGTMGVAPPAKYGRLSSREPREHGGNMDNKELVAGSTLYLPVWVPGANFSVGDGHGRQGDGEVCVNALEMGLTGTFTFVLHKKANGAADIAPFAWPRAETPTHYVLMGFHEDLDLAMKQALRQTIDFITARSNLTRVQAYQFCSLAVDFRVTQTVNGEKGVHALLSKGLLF
result: not soluble
--
querySequence: AINQANRSVCITTPYFVPSADLLATLKMTAQRGIKVDIIIPKKNDSLMVQWASRAFYGELLEAGVQIHEFDGGLLHTKSVVIDQQFCLVGTVNLDMRSLWLNFELTLAVDDLEFTQQMHWLQQQYIDQSHSVVYAEWEQRPWYNRFLERVFYLFNPLL
result: not soluble
--
querySequence: MRGSHHHHHHGSMQYALLFPGQGSQCIGMGKSFYEGHTLAKELFERASNALKVDMKKTLFEENELLKESAYTQPAIYLVSYIAYQLLNKQANGGLKPVFALGHSLGEVSAVSLSGALDFEKALKLTHQRGKMMQEACANKDASMMVVLGVSEESLLSLCQRTKNVWCANFNGGMQVVLAGVKDDLKALEPTLKEMGAKRVVFLEMSVASHCPFLEPMIFKFQELLEKSLKDKFHFEIISNATNEAYHNKAKAVELLSLQLTQPVRYQDCVKSNNDRVDIFFELGCGSVLKGLNKRLSNKPTISVGDNKGLDEAIEFLEEYV
result: soluble
--
querySequence: MDIKAQLKQIQDKGLYRELQPIQSVEKQYIYINDQSYINFTSNDYLGIGQLEYQPQNFLDFIKTYSIHLSSSRLVSGNSVVYQQLEQAISEHFNFEDALIFNSGYDANLAVFNIFKNNNVVIFSDQQNHASIIDGIKLSGLSKVIYQHLNYDDLESHLAQDTHLDVQKVIVSDSVFSTNGTKADINRLVHLKQRYNAILIIDASHSLGLNLFEYHADIDIVTSSLSKAWGAHGGIIFSSKDIKDLIINKGRSLIYSSSLPSYHLYFIQVSLQHVIEDTYRREKLNALSEYFNHQFMELFPNQPLSNTPIKNIVCDSLASAQAQYDMLFEHGIFVSYLRYPTVSQPTLRISLSYFHDTDDIDRLFNVMKQYDEGDSYV
result: not soluble
--
querySequence: SKKEHVLHCQFSAWYPFFRGVTIKSVILPLPQNVKDYLLDDGTLVVSGRDDPPTHSQPDSDDEAEEIQWSDDENTATLTAPEFPEFATKVQEAINSLGGSVFPKLNWSAPRDAYWIAMNSSLKCKTLSDIFLLFKSSDFITRDFTQPFIHCTDDSPDPCIEYELVLRKWCELIPGAEFRCFVKENKLIGISQRDYTQYYDHISKQKEEIRRCIQDFFKKHIQYKFLDEDFVFDIYRDSRGKVWLIDFNPFGEVTDSLLFTWEELISENNLNGDFSEVDAQEQDSPAFRCTNSEVTVQPSPYLSYRLPKDFVDLSTGEDAHKLIDFLKLKRNQQEDD
result: soluble
--
querySequence: MGSDKIHHHHHHMFQYRFKWSFSSDPNLSDRLFELIEVIFPGLNDLVERGRKLGASWESASTPFIRFHDDVAITHVGVLEIPMVIMGQRVTVGGIHGVATRPEFRRKGYYREVIEEVLEYCDQIYETLILTTPEPEYHLPFGFRVVEEYIFHLKCSSKGNVNGWRILDFSDNQDLALLHRLLETRAPVSHVVGVVNEKPVFFVNEGSRDLYYAEDLDLIACIKIENNRLHIFDLVATKICSLKEILGRTSEVIEEVKIYFSPDLLDVDNVQAFPYKLEDTVLMIRGQFAAVGEKFMLPRSARC
result: not soluble
--
querySequence: MSLSSITNVAATAGVSIATVSRVLSGKRGKDDDIARRVREAAKQLGYSVNYAASALRSDVTKTIGLVIPSATEPFSAQLLDEIEPTIDTESQQLLLGIGATQEAQAERIESLVNRHVDGLIVVPAAGADLAGTLNQYANTLPIVQICGRQTAPRVSVVGIDENAAMEAIVKHLAEQGIASAAYMAGDELSFESAELFATFHTHMRTYGLVTSENWNQFGERTVQRGFDCAMRLFNGPLVQPEAVVCADDAIAFGVMVAFDALGIRVPEDVLVVGYHDSAIARTTMPRLTSVRAPFERIVSECLRLLASGPAGGAAETAAAPGGSVRAPRVMLAPQLIVRDSSVFREGHHHHHH
result: soluble
--
querySequence: MSLNPKILEKWMAEGQVTLPQVLVKNYATIGLNEVELVLLLQIQSFAAEAEFFPSMEMLTNRTTLPLEETIKTMDSLLKKGVIAIEQSQDNSRMISEQYNLAPLWGKLVALYENKEADSKHEKELEKQTSLYTLFEAEFGRPLSPMEAEMLSAWVEQDRTSPDLIKEALKEAVISQKLNFRYIDRILLNWSKQGVKTIEDAKRVAEEFHQNGRTSQAINQTEVKKSAGSIPLYDWLEKRKGEGHHHHHH
result: soluble

The sequence identified as MGSDKIHHHHHHMSITKRIRDNQRNTVLSPVPPFPKSMMLEPSNACNHACRFCGNNRSGIKRVNIPVDFARDILAQAAALGVEEVGLYLRGEPFLHPRLNEIVSYAKASGIGYVYLSSNGGCGTTEAYEAVLEAGLDSFKFSINAGNRQDFKAIHGKDDFEKVVERLRWLIAYREATGLDFKIYVSSTFIDATRGAILAMRDEFAPLVDEYYVHGTCPVPGVKSTDLDHGFSLPCPMVFNRVHVTAEGYLNACCFDFENALAVADLTRVPLNDAWASPLFEDLRRKHLMRNAKGVLCGNCVAGGGVEYEPLVMEFMSRSKRHENP registered its soluble on expression in E. coli at not soluble

soluble on expression in E. coli measured on MRKVKTDNSDLIEYVNTVKELKNHIPIEEYRNEYRKLRSDDIPLVKAQKFKSAHTEVRRLEKKRESLIEYFIDELNPISSSKANTSARSTGNLDLFNERVLYRKAISEKSDEEIVALVIKQRTEAAVEFQRSIEQSLEQLSRISSEFEPSNQKRRKMSL = soluble

====

Test: soluble on expression in E. coli; label from the status in PepcDB or PDB records
readoutType: soluble on expression in E. coli

Example results:
querySequence: MVASCKSTSQPVSLSQKDSSPDFNRCRNDSEDTVNLTGSGDIYIDKESSQKALDDLLRKVTLDGGISLKDAKSSEILAAYERKIQMLQLELQMKNVPKPVVEIETTSQKIRDLAQECEALRDSNKQLTDHMTRGNLEINQLKVQLEEVKQKCDSIETSLGMCITEKAGLKTQLTESLQNAERNVHTAQNEISKLNTELAQSVTRIELFLAENRELKQEFEEKVVECEVLKEHIRQIDLELKNKQSDMERALLQISAAEQKAAKKELELIEAEKHLKLYESRLSDRERDLNAKNLEIDRLKLDLDAARRNLQKLEQMREAMLSLASSSSN
result: not soluble

querySequence: MTNPLYTGHPFGTTVTEETLRAIFLPLTQWEDKYRQLILLGKQLPALPDECKAQAKEIAGCENRVWLGFTRSDNGTMHFFGDSEGRIVRGLLAVLLTAVEGKNAAELQARSPLALFDELGLRAQLSASRSQGLNALSEAIVAATHKG
result: not soluble

querySequence: SIEFSTAITRQIVLDTETTGMNQIGAHYEGHKIIEIGAVEVVNRRLTGNNFHVYLKPDRLVDPEAFGVHGIADEFLLDKPTFAEVADEFMDYIRGAELVIHNAAFDIGFMDYEFSLLKRDIPKTNTFCKVTDSLAVARKMFPGKRNSLDALCARYEIDNSKRTLHGALLDAQILAEVYLAMTGGQTSMATRESG
result: soluble

querySequence: ESSDHLRLVAWYIPVKNSKRTVVLAHGFAGNKGLMGAWAGMYHELGYNVLVPDSRASGASQGKAVGYGWLERRDDLQWAKTVVHKTATTQIVMSGISMGAAGMTMASGERQLPQIKAYVVDSPFTSADAIISYQAGQLYHLPAFPLVNVTSLITKLRAGYSFKEADAVAQIRKNHLPIMIISGTRDDFVPTSMGKTLYRNAHQPKSLWLVKGAGHTTAITQNYQRYKRHVTAFLEQYVQ
result: not soluble

querySequence: MGHHHHHHSHMDVVKEIMAAIKQYETIIIHRHQRPDPDAIGSQVGLAELLRASFPEKNIYQVGGPVEGLEFLAEMDVITDDVYRGALVIVTDTANAPRISDARFSLGDQLIKIDHHPNDEPYGDLVWVNTNASSCSEIIVDFWQQHLAELTMTDNAARLLYAGIVGDTGRFLYPSTSAHTLAVAAQLRTFNFNAADLNRELDQMPLKVAKLAGYIYQNLEIDANGAARVVLPQSILNSYDIVDSETAAIVSMPGKIEDVLSWAIFVEQPEGYYRVRLRSKGPIINTIAKKHHGGGHPLASGANARDAAEIEVIYQEIQAACQEWAQK
result: soluble

Input MNIDIKEAHRRMLYLLQSFDTVCKKHDIDYWLDYGTLLGAIRHQGFIPWDTDTDVGMLRSDYALFLEKGVPELPQDIFFQTPETEPAMAPWSWLVEARLRDRHSRYVPDKKTPAEPMQFGGLQLDLFIYDWDGKYENALSNSFERNLSESRIHLRLDEVEYLDTARFEGVEFPVPSGYDAYLTRCYGDYRTFPPEEERQIPEVVAWSVLEHHHHHH . Output soluble on expression in E. coli: soluble
